Reference source: paper PMC6338552

biological target: His6-JNK3α1 (UniProt P53779-2 1-422); test: fluorescence polarisation
TMR = 6-carboxytetramethylrhodamine
reported_metric: Kd (nM)
Expressed in nM, but write only the number.

The reported value for {TMR}-RPKRPTTLNLF-OH [TMR-JIPtide] in terms of Kd is 480
